Tested On: Bile acid receptor (Homo sapiens)
Test: ATG_IR1_CIS: Attagene CIS-FACTORIAL HepG2 Assay for human Nuclear Receptor Subfamily 1 Group H Member 4 (NR1H4), IR1 submotif (AID 2282946)
Conditions Used: IR1 reporter transcription, actives raise or lower the signal
Activity calls are given as the source filed them. How the source made its calls: active means hit-call score of the fitted dose curve at least 0.9, where 1 is the maximum; inactive means score below 0.9.
Mark one answer only. Choices: TRUE (active), FALSE (inactive)

Identify the outcome logged in this assay for the molecule shown: `NCC(F)(F)C(F)(F)C(F)(F)C(F)(F)C(F)(F)C(F)(F)F` FALSE

Identify the outcome logged in this assay for the molecule shown: COC(F)(C(F)F)C(F)(F)F (stereo not given) FALSE

Identify the outcome logged in this assay for the molecule shown: `O=c1[nH]cccc1O` FALSE

Identify the outcome logged in this assay for the molecule shown: `NC(O)(C(F)(F)F)C(F)(F)F` FALSE

Identify the outcome logged in this assay for the molecule shown: `OCCCCC(F)(F)C(F)(F)C(F)(F)C(F)(F)F` FALSE

Identify the outcome logged in this assay for the molecule shown: `C=C(C)C(=O)OCC(F)(F)C(F)(F)C(F)(F)C(F)F` FALSE

Identify the outcome logged in this assay for the molecule shown: `O=C(c1ccccc1)c1ccc(O)cc1O` FALSE

Identify the outcome logged in this assay for the molecule shown: `OCCCCl` FALSE

Identify the outcome logged in this assay for the molecule shown: `CCCCCCCCCCCCCCCCC` FALSE

Identify the outcome logged in this assay for the molecule shown: `Brc1nc2ccccc2s1` FALSE

Identify the outcome logged in this assay for the molecule shown: `CCn1c2ccccc2c2ccccc21` FALSE

Identify the outcome logged in this assay for the molecule shown: `O=C(Cl)C(F)(F)C(F)(F)C(F)(F)C(F)(F)C(F)(F)C(F)(F)C(F)(F)F` FALSE

Identify the outcome logged in this assay for the molecule shown: `F[Si-2](F)(F)(F)(F)F` FALSE

Identify the outcome logged in this assay for the molecule shown: CCOC(=O)C1CC(=O)C(=C(O)C2CC2)C(=O)C1 (stereo not given) FALSE

Identify the outcome logged in this assay for the molecule shown: `O=C(F)C1(F)C(F)(F)C(F)(F)C(F)(F)C(F)(F)C1(F)F` FALSE

Identify the outcome logged in this assay for the molecule shown: `FC(F)(F)C(F)(F)C(F)(F)C(F)(F)C(F)(F)C(F)(F)C(F)(F)CCI` FALSE

Identify the outcome logged in this assay for the molecule shown: OCC1CCCO1 (stereo not given) FALSE

Identify the outcome logged in this assay for the molecule shown: `CCOC(=O)CCC(C)=O` FALSE

Identify the outcome logged in this assay for the molecule shown: CO[Si](CCCOCC1CO1)(OC)OC (stereo not given) FALSE

Identify the outcome logged in this assay for the molecule shown: `CCN=c1cc2oc3cc(NCC)c(C)cc3c(-c3ccccc3C(=O)OCC)c-2cc1C` TRUE

Identify the outcome logged in this assay for the molecule shown: `CC(C)(C)C(=O)C1C(=O)c2ccccc2C1=O` FALSE

Identify the outcome logged in this assay for the molecule shown: `Nc1c(Br)cc([N+](=O)[O-])cc1Br` FALSE

Identify the outcome logged in this assay for the molecule shown: `CCOC(OCC)OCC` FALSE

Identify the outcome logged in this assay for the molecule shown: `CCOCOCC` FALSE

Identify the outcome logged in this assay for the molecule shown: `Nc1cc([N+](=O)[O-])cc(Cl)c1O` FALSE

Identify the outcome logged in this assay for the molecule shown: `NC(=O)C(F)(F)C(F)(F)C(F)(F)C(F)F` FALSE

Identify the outcome logged in this assay for the molecule shown: `CN1CN(C)CN(C)C1` FALSE

Identify the outcome logged in this assay for the molecule shown: `O=c1cccc[nH]1` FALSE

Identify the outcome logged in this assay for the molecule shown: `CC(C)OC=O` FALSE

Identify the outcome logged in this assay for the molecule shown: `CCOCN(C(=O)CS(=O)(=O)O)c1c(C)cccc1CC` FALSE

----------
Tested On: Cellular tumor antigen p53 (Homo sapiens)
Test: TOX21_p53_BLA_p3_ratio: Tox21 HCT-116 p53 Agonism Beta-lactamase Assay, Ratio, Phase 3 (AID 2283596)
Procedure: TOX21_p53_BLA_p3 is a cell-based, single-readout assay that uses HCT116, a human intestinal cell line, […] in a 1536-well plate.TOX21_p53_BLA_p3_ratio is an assay readout measuring reporter gene via receptor activity and designed using inducible reporter (beta lactamase induction) detected with GAL4 b-lactamase reporter gene. […] This assay endpoint, TOX21_p53_BLA_p3_ratio, was analyzed in the positive analysis fitting direction relative to DMSO as the negative control and baseline of activity. […]
Results filed as inconclusive are left out. The source made the active and inactive calls. How the source made its calls: active means hit-call score of the fitted dose curve at least 0.9, where 1 is the maximum; inconclusive means response in the unintended direction; inactive means score below 0.9.
Mark one answer only. Choices: label 1 = active, label 0 = inactive

Identify the outcome logged in this assay for the compound shown: CCC(C)CO (centres undefined) label 0

Identify the outcome logged in this assay for the compound shown: `CCCCCCCCCCCCCCCCC` label 0

Identify the outcome logged in this assay for the compound shown: CCCCOC(=O)C(C)O (centres undefined) label 0

Identify the outcome logged in this assay for the compound shown: `CN(N=O)C(=O)N[C@@H]1[C@@H](O)[C@H](O)[C@@H](CO)O[C@@H]1O` label 0

Identify the outcome logged in this assay for the compound shown: `Cc1cc(O)c(C(C)(C)C)cc1C(C)(C)C` label 1

Identify the outcome logged in this assay for the compound shown: `CCCCOC(=O)[C@H](C)O` label 0

Identify the outcome logged in this assay for the compound shown: `CC(C)Nc1ccc(NC(C)C)c2c1C(=O)c1ccccc1C2=O` label 0

Identify the outcome logged in this assay for the compound shown: `CCCCCCCCn1sc(Cl)c(Cl)c1=O` label 1

Identify the outcome logged in this assay for the compound shown: `COC(=O)c1ccc(C=O)cc1` label 0

Identify the outcome logged in this assay for the compound shown: `O=C1C=CC(=O)N1c1ccccc1` label 1

Identify the outcome logged in this assay for the compound shown: CCC(Cc1c(I)cc(I)c(N)c1I)C(=O)O (centres undefined) label 0

Identify the outcome logged in this assay for the compound shown: `CC(C)CC=C(C=O)c1ccccc1` label 0

Identify the outcome logged in this assay for the compound shown: `Cc1ccc2c(c1)OCC(=O)CO2` label 0

Identify the outcome logged in this assay for the compound shown: `CCCCCC/C=C/CCCCCCCC(=O)O` label 0

----------
Test: CCTE_Simmons_CellTiterGLO_HEK293T: Viability Assessment in CCTE's Assays for Thyroperoxidase (TPO) Inhibition, Simmons Lab (AID 2283665)
Inconclusive results are not listed. The source made the active and inactive calls. Rule for the calls: active = hit-call score of the fitted dose curve at least 0.9, where 1 is the maximum; inconclusive = response in the unintended direction; inactive = score below 0.9.
Mark one answer only. Choices: active, inactive

Identify the outcome logged in this assay for the molecule shown: `CCCCCCCC/C=C\CCCCCCCC(=O)N(C)CC(=O)O` active

Identify the outcome logged in this assay for the molecule shown: `C[C@]12CC[C@H]3C(=CCc4cc(O)ccc43)[C@@H]1CCC2=O` active

Identify the outcome logged in this assay for the molecule shown: `Cc1ccc(O)cn1` inactive

Identify the outcome logged in this assay for the molecule shown: `CCN=C1C=CC(=C(c2ccc(N(CC)CC)cc2)c2ccc(N(CC)CC)cc2)c2ccccc21` active

Identify the outcome logged in this assay for the molecule shown: `O=c1[nH]cccc1O` inactive

Identify the outcome logged in this assay for the molecule shown: `O=C(c1ccccc1)c1ccc(O)cc1O` inactive

Identify the outcome logged in this assay for the molecule shown: `CCCCCCCCCCCCC[N+](C)(C)Cc1ccccc1` active

Identify the outcome logged in this assay for the molecule shown: `O=c1cccc[nH]1` inactive

Identify the outcome logged in this assay for the molecule shown: `Cc1ccc(O)c(-n2nc3ccccc3n2)c1` active

----------
Tested On: CCAAT/enhancer-binding protein beta (Homo sapiens) (UniProt P17676)
Sequence (P17676 whole entry, looked up): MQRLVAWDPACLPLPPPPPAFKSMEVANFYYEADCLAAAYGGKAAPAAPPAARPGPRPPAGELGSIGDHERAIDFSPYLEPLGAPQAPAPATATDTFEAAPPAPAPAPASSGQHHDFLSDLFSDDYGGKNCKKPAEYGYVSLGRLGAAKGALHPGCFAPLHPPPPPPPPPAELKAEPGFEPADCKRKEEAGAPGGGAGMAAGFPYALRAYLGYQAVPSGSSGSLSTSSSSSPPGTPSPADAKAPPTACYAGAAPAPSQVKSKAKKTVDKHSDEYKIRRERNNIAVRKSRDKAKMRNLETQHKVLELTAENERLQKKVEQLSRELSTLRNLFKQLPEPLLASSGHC
Test: ATG_C_EBP_CIS: Attagene CIS-FACTORIAL HepG2 Assay for human CCAAT/Enhancer Binding Protein (C/EBP) beta (AID 2282927)
Conditions Used: HepG2 Attagene cis-factorial transcription factor reporter; actives raise or lower the signal
The source made the active and inactive calls. Rule for the calls: active = hit-call score of the fitted dose curve at least 0.9, where 1 is the maximum; inactive = score below 0.9.
Measured Attribute: outcome

CC(C)(C)c1cc(CCC(=O)OCC(COC(=O)CCc2cc(C(C)(C)C)c(O)c(C(C)(C)C)c2)(COC(=O)CCc2cc(C(C)(C)C)c(O)c(C(C)(C)C)c2)COC(=O)CCc2cc(C(C)(C)C)c(O)c(C(C)(C)C)c2)cc(C(C)(C)C)c1O = inactive
CCN(CCO)S(=O)(=O)C(F)(F)C(F)(F)C(F)(F)C(F)(F)C(F)(F)C(F)(F)C(F)(F)C(F)(F)F = inactive
Oc1ccc(C2(c3ccc(O)c(C4CCCCC4)c3)CCCCC2)cc1C1CCCCC1 = inactive
CCOC(C=C(C)CCC=C(C)C)OCC = inactive
Brc1ccccn1 = inactive
COCCOCCC[Si](C)(O[Si](C)(C)C)O[Si](C)(C)C = inactive

Given the molecule `NCC(F)(F)C(F)(F)C(F)(F)C(F)(F)C(F)(F)C(F)(F)F` and test system CCAAT/enhancer-binding protein beta (Homo sapiens) (UniProt P17676), the measured outcome is inactive
